Recorded values, source patent US20220220218A1.

Attribute: koff
- test.target: T1, human CD73 (huCD73) protein, antigen of the Biacore assay (human, UniProt P21589 27-547, limits assumed)
- T1 construct: also called human CD73 antigen
- T1 sequence (looked up): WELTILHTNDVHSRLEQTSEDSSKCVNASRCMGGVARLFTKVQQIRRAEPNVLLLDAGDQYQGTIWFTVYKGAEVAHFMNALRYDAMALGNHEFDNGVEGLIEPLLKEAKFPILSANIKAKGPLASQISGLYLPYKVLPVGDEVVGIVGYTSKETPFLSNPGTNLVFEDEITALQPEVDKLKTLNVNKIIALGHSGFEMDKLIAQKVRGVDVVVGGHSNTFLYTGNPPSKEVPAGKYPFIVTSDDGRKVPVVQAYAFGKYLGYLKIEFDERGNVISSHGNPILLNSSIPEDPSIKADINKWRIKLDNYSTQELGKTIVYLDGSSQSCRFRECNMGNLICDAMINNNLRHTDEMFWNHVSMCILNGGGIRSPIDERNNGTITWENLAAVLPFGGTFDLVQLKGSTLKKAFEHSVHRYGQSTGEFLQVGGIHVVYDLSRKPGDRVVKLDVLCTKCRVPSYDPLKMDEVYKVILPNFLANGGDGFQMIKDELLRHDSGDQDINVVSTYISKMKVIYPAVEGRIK
- assay.procedure: SPR Biacore T200; antibody captured on Protein A chip, CD73 in flow; 1:1 Langmuir
test.readout: koff (s⁻¹)

1) Hab108.15 (antibody, V domains shown, VL1 + VH5; full-length antibody) VH: EVTLKESGPVLVKPTETLTLTCTVSGFSLKSYGIQWVRQPPGKLLEWLGVIWSGGSADYNAAFISRLTISKDTSKSQVVLTMTNMDPVDTATYYCAGQYGSVWGQGTLVTVSS VL: DIQMTQSPSSLSASVGDRVTITCRASQDIGDRLNWYQQKPGKAPKRLIYATSSLDSGVPSRFSGSGSGTEFTLTISSLQPEDFATYYCLQYAGSWTFGGGTKVEIK: 0.000121
2) Hab127.33 (antibody, V domains shown, VL3 + VH3; recombined with human heavy and light constant regions) VH: EVQLVQSGAEVKKPGASVKVSCKASGYTFTAYFMNWVMQAPGQGLEWIGRIYHNNGDTFYSQKFKGRATLTVDKSTSTVYMELSSLRSEDTAVYYCATSYVGDWGQGTTVTVSS VL: DIQMTQSPSSLSASVGDRVTITCRASQDIGDSLNWLQQKPGGALKRLIYATSSLDSGVPSRFSGSGSGTEYTLTISSLQPEDFATYYCLQYASFPWTFGGGTKVEIK: 3.69e-05
3) Hab127.24 (antibody, V domains shown, VL2 + VH4; recombined with human heavy and light constant regions) VH: EVQLVQSGAEVKKPGASVKVSCKASGYTFTAYFMNWVMQAPGQSLEWIGRIYHNNGDTFYSQKFKGRATLTVDKSTSTVYMELRSLRSEDTAVYYCATSYVGDWGQGTTVTVSS VL: DIQMTQSPSSLSASVGDRVTITCRASQDIGDSLNWLQQKPGKAPKRLIYATSSLDSGVPSRFSGSGSGTEYTLTISSLQPEDFATYYCLQYASFPWTFGGGTKVEIK: 4.48e-05
4) Hab110.35 (antibody, V domains shown, VL3 + VH5; recombined with human heavy and light constant regions) VH: EVQLVQSGAEVKKPGASVKVSCKASGYTFTSYTMHWVKQAPGQGLEWIGYINPNSFYIEYNQKFKDKATLTADTSASTAYMELSSLRSEDTAVYYCARGDYDLFYDMDNWGQGTTVTVSS VL: DIQMTQSPSSLSASVGDRVTITCRASQDIGNSLNWLQQKPGGAIKRLIYATFRLDSGVPSRFSGSRSGTEYTLTISSLQPEDFADYYCQQYASFPWTFGGGTKVEIK: 9.4e-05
5) Hab127.31 (antibody, V domains shown, VL3 + VH1; recombined with human heavy and light constant regions) VH: EVQLVQSGAEVKKPGASVKVSCKASGYTFTAYFMNWVRQAPGQGLEWMGRIYHNNGDTFYSQKFKGRVTMTVDKSTSTVYMELSSLRSEDTAVYYCATSYVGDWGQGTTVTVSS VL: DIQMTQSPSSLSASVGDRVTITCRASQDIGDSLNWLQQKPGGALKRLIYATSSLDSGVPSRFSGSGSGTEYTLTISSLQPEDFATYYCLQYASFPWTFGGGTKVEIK: 4.2e-05
